List of IC50 values.
Tested on: K562
experimentDescription: Cytotoxicity against human K562 cells
Assay type: functional, cell-based
assayReadout: IC50 (µM)

cpdSmiles	units	comparisonSymbol	recordedMeasurement
COc1cc(O)c(C(=O)O[C@@H]2C[C@]3(C)[C@H]4CC(C)(C)C[C@H]4C=C(CO)[C@]23O)c(C)c1Cl	µM	=	38.9
Cc1c(Cl)c(O)cc(O)c1C(=O)O[C@@H]1C[C@]2(C)[C@H]3CC(C)(C)C[C@@]3(O)C=C(CO)[C@]12O	µM	>	100
COc1cc(O)c(C(=O)O[C@@H]2C[C@]3(C)[C@H]4CC(C)(C)C[C@H]4C=C(C=O)[C@]23OC)c(C)c1Cl	µM	=	20.6
COc1cc(C)c(C(=O)O[C@@H]2C[C@]3(C)[C@H]4CC(C)(C)C[C@H]4C=C(C=O)[C@]23O)c(O)c1	µM	=	9.9
